- System: SK-OV-3 ovarian
- experimentalDetails: NCI tumour cell line growth inhibition, 48 h
Assignment: determine reported GI50 for the given compounds.

Previously resolved entries follow.
COc1cc2cc3c(c(O)c2c(O)c1-c1c(OC)cc2cc4c(c(O)c2c1O)C(=O)O[C@H](C)C4)C(=O)O[C@H](C)C3	26500 nM
COc1c(O)c2c3c(c1OC)-c1ccccc1CC3N(S(=O)(=O)c1ccc(C)cc1)CC2 (stereo not drawn)	1960 nM

-- ask Give GI50 for this entry on SK-OV-3 ovarian: `COc1cc2c(cc1OCCCOc1ccc(-c3cc4ccccc4c4ccccc34)cc1)N=C[C@@H]1CCCN1C2=O`
-- reply 1600 nM
